Source of measurements: PubChem BioAssay (Tox21)

test name: qHTS RealTime-Glo MT Cell Viability Assay in HepG2 cells - 8 hour (AID 1224873); also: nearly all actives have a fitted effect of over 55% in size
run conditions: RealTime-Glo luminescence; series mostly up to 76.8 µM
Records with an inconclusive call do not appear. Activity calls are given as the source filed them. Calls follow the shape of the dose curve; as a rule, active = well fitted cell-killing curve with a large enough effect in the repeat runs; inconclusive = weak or mixed curves; inactive = flat fitted curve, though single readings scatter.
observation type: viability change, negative = cytotoxic

Below are worked cases with known answers.
> print(dat)
                                   compound                        observation.type  recorded.value
1  CC(Cc1ccccc1)NCc1ccccc1Cl (configuration not stated)  viability change, negative = cytotoxic        inactive
2  CCCCC(CC)CO[N+](=O)[O-] (configuration not stated)  viability change, negative = cytotoxic        inactive
3                                  NC(=O)CF  viability change, negative = cytotoxic        inactive
4  CC(C)(C)NCC(O)c1cc(Cl)c(N)c(C(F)(F)F)c1 (configuration not stated)  viability change, negative = cytotoxic        inactive
5  C[C@]12CC[C@H]3[C@@H](CCC4=CC(=O)CC[C@@H]43)[C@@H]1CC[C@@H]2OC(=O)CCc1ccccc1  viability change, negative = cytotoxic        inactive

Fill in the blank: the reported viability change, negative = cytotoxic of CCCCCCCCCCCCN(C)C is ____.
inactive

Fill in the blank: the reported viability change, negative = cytotoxic of CN(C1CCCCC1)C1CCCCC1 is ____.
inactive

Fill in the blank: the reported viability change, negative = cytotoxic of CCCN(CCOc1c(Cl)cc(Cl)cc1Cl)C(=O)n1ccnc1 is ____.
inactive

Fill in the blank: the reported viability change, negative = cytotoxic of CCCCCCCCCCCCCCCl is ____.
inactive

Fill in the blank: the reported viability change, negative = cytotoxic of CCC(C)Cl (configuration not stated) is ____.
inactive

Fill in the blank: the reported viability change, negative = cytotoxic of O=C(Cl)OCCOCCOC(=O)Cl is ____.
inactive
